target: human glucagon-like peptide 1 receptor (human, UniProt P43220 24-463)
test: cell-based or functional assay
Where no end group is shown, it is not given here. [ ]: non-standard residue; d: D form. Aib = CC(C)(N)C(=O)O
Catalogue of hGLP-1R CRE Luc EC50 (pM) values
Answer as a quantity: numeral, then unit.

binder	reading
H[Aib]HGTFTSDYSILLEKQAAQEFVQWLLEGGPSSGAPPPS-OH (not fully specified (residue 16); printed as H-Aib-HGTFTSDYSILLE-K[(2S)-2-amino-6-[[(2S)-2-amino-6-[[(4S)-4-carboxy-4-(19-carboxynonadecanoylamino)butanoyl]amino]hexanoyl]amino]hexanoyl]-QAAQEFVQWLLEGGPSSGAPPPS-OH) [Compound No. 53]	2.7 pM

Q: Could you tell me which hGLP-1R CRE Luc EC50 (pM) is on file for H[Aib]HGTFTSDYSIYLEKKAA[Aib]EFVQWLLEGGPSSGAPPPS-NH2 (not fully specified (residue 16); printed as H-Aib-HGTFTSDYSIYLE-K[2-[2-[2-[[2-[2-[2-[[(4S)-4-carboxy-4-(19-carboxynonadecanoylamino)butanoyl]amino]ethoxy]ethoxy]acetyl]amino]ethoxy]ethoxy]acetyl]-KAA-Aib-EFVQWLLEGGPSSGAPPPS-NH2) [Compound No. 34] ?
Ans: 2.6 pM
